Values were extracted from ChEMBL document CHEMBL1153060.

- target.system: Mitogen-activated protein kinase 11 (Homo sapiens)
- Sequence (Q15759 whole entry): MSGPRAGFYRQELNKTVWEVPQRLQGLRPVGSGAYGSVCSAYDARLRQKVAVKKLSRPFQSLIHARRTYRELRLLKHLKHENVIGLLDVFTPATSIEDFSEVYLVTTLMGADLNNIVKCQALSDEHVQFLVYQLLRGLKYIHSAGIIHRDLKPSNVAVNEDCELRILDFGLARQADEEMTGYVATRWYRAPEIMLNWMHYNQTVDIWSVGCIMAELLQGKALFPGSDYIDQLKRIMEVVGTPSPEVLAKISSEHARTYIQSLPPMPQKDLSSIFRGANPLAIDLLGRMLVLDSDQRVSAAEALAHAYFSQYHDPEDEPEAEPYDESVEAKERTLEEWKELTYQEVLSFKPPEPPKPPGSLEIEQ
- assay.procedure: Inhibition of p38beta
reported.metric: pIC50
In plain terms, pIC50 is the concentration in mol/L turned into minus its base-10 logarithm.

Query: Tell me its pIC50 given Cn1c(=O)cc(Nc2cc(C(=O)NC3CC3)ccc2Cl)c2cnn(-c3ccc(F)cc3)c21 as the entry.
Reply: 8.40

###

- assay.procedure: Solubility in simulated intestinal fluid
- Assay type: physicochemical
The threshold is inclusive: solubility of exactly 40 µg/mL counts as fulfilled; values below receive not fulfilled.

Past entries and their recorded results:
> print(dat)
                                        mol    label.class
1  Cn1c(=O)cc(Nc2cc(C(=O)NC3CC3)ccc2Cl)c2cnn(-c3ccc(F)cc3)c21  not fulfilled
2  Cn1c(=O)cc(Nc2cc(C(=O)NC3CC3)ccc2Cl)c2cnn(-c3ccc(F)cc3F)c21      fulfilled
3  Cn1c(=O)cc(Oc2cc(C(=O)NC3CC3)ccc2Cl)c2cnn(-c3cc(F)ccc3F)c21      fulfilled
4  Cc1ccc(C(=O)NC2CC2)cc1Oc1cc(=O)n(C)c2c1cnn2-c1ccc(F)cc1F  not fulfilled

Query: Is solubility for Cn1c(=O)cc(Nc2cc(C(=O)NC3CC3)ccc2Cl)c2cnn(-c3cc(F)ccc3F)c21 at or above 40 µg/mL?
Reply: not fulfilled
